For each record, write down the corresponding antigen-binding activity after storage at 40° C. for 4 weeks, relative to storage at 4° C..
test system: T1, human PAD4 (Cayman Chemical company, Cat 10500) (human, UniProt Q9UM07 1-663)
T1 construct: Bought protein
T1 sequence (Q9UM07 whole entry): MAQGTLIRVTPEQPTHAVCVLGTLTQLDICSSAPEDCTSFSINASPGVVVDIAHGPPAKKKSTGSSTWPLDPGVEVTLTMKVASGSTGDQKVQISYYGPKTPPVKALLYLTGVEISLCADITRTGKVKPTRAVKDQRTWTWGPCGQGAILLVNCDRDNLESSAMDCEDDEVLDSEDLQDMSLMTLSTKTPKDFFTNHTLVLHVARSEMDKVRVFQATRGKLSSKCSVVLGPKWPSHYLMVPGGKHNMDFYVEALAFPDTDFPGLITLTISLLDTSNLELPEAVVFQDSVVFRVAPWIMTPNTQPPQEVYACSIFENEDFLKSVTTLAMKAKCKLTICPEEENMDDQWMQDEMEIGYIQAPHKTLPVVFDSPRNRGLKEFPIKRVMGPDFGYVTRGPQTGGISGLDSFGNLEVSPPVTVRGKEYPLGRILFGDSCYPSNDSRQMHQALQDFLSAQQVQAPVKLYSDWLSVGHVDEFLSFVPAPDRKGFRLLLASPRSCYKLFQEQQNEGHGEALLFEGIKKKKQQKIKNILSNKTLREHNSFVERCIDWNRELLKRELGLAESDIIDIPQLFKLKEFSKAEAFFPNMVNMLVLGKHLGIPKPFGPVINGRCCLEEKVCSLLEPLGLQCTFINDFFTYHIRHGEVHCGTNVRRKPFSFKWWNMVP
assay protocol: SPR, Biacore T200, antibody captured on Protein A chip, 50 nM human PAD4 as analyte; antigen binding amount divided by antibody binding amount
Answers are plain numbers, in %.

binder	measured value
anti-PAD4 antibody 2-1-47 (antibody, human IgG1, lambda, V domains shown, Lib2(4R)-1-47 with the 84th asparagine of the heavy chain substituted with serine; full-length IgG from ExpiCHO) VH: EVQLLESGGGLVQPGGSLRLSCAASGFTFSTYAMGWVRQAPGKGLEFVAAIRNDGSWTGYGTPYKTRFTISRDNSKNTLYLQMSSLRAEDTAVYYCAKYTGSSGGSIGAWGQGTLVTVSS VL: SYELTQPPSVSVSPGQTARITCSGGNRNYYYGWYQQKPGQAPVTVIYANDKRPSGIPERFSGSNSGSTTTLTISGVQAEDEADYYCGTATTGKYVFGGGTKLTVLG	95.6

Hi team, please reply with antigen-binding activity after storage at 40° C. for 4 weeks, relative to storage at 4° C. for each item in this list.
1. anti-PAD4 antibody 4-2-25 (antibody, human IgG1, lambda, V domains shown, Lib2(5R)-2-25 with the 84th asparagine of the heavy chain substituted with serine; full-length IgG from ExpiCHO) VH: EVQLLESGGGLVQPGGSLRLSCAASGFTFSTYAMGWVRQAPGKGLEFVAAIRNDGSWTGYPPPLKGRFTISRDNSKNTLYLQMSSLRAEDTAVYYCAKYTGSSGGSIGAWGQGTLVTVSS VL: SYELTQPPSVSVSPGQTARITCSGGNRNYYYGWYQQKPGQAPVTVIYANDKRPSGIPERFSGSNSGSTTTLTISGVQAEDEADYYCGTAYTGKYVFGGGTKLTVLG
2. anti-PAD4 antibody 3-2-37 (antibody, human IgG1, lambda, V domains shown, Lib1(6R)-2-37 with the 84th asparagine of the heavy chain substituted with serine; full-length IgG from ExpiCHO) VH: EVQLLESGGGLVQPGGSLRLSCAASGFTFSTYAMGWVRQAPGKGLEFVAAIRNDGSWTGIGYNQKSRFTISRDNSKNTLYLQMSSLRAEDTAVYYCGKYTGSSGGSIGAWGQGTLVTVSS VL: SYELTQPPSVSVSPGQTARITCSGGNRNYYYGWYQQKPGQAPVTVIYANDKRPSGIPERFSGSNSGSTTTLTISGVQAEDEADYYCGTALTGKYVFGGGTKLTVLG
3. anti-PAD4 antibody 3-1-39 (antibody, human IgG1, lambda, V domains shown, Lib1(6R)-1-39 with the 84th asparagine of the heavy chain substituted with serine; full-length IgG from ExpiCHO) VH: EVQLLESGGGLVQPGGSLRLSCAASGFTFSTYAMGWVRQAPGKGLEFVAAIRNDGSWTGTSVNAKTRFTISRDNSKNTLYLQMSSLRAEDTAVYYCAKYTGSSGGSIGAWGQGTLVTVSS VL: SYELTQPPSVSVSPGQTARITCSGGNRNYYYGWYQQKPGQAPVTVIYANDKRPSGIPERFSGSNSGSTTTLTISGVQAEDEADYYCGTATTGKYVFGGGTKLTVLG

1. 97
2. 94.7
3. 93.9
